test system: SK-MES-1; assay: relative viability (nuclei count vs DMSO), 5 days (fraction); higher = more cells survive; settings: first compound 0.03162 µM
RECORDED ENDPOINT: relative viability

Take a look at these entries with their results.
>>> obs_value("CC(C)Oc1cc(Nc2nc(N[C@@H](C)c3ccc(F)cn3)ncc2Cl)n[nH]1 [AZ23] + Nc1ncn([C@H]2C[C@H](O)[C@@H](CO)O2)c(=O)n1 [Decitabine] (partner 2 µM)")
0.382
>>> obs_value("CC(C)Oc1cc(Nc2nc(N[C@@H](C)c3ccc(F)cn3)ncc2Cl)n[nH]1 [AZ23] + COc1cc2c(Oc3ccc(NC(=O)C4(C(=O)Nc5ccc(F)cc5)CC4)cc3F)ccnc2cc1OCCCN1CCOCC1 [Foretinib] (partner 0.25 µM)")
1.05
>>> obs_value("CC(C)Oc1cc(Nc2nc(N[C@@H](C)c3ccc(F)cn3)ncc2Cl)n[nH]1 [AZ23] + C[C@]1(O)C[C@@H](c2nc(-c3ccc4ccc(-c5ccccc5)nc4c3)c3c(N)nccn32)C1 [Linsitinib] (partner 1 µM)")
1.16
>>> obs_value("CC(C)Oc1cc(Nc2nc(N[C@@H](C)c3ccc(F)cn3)ncc2Cl)n[nH]1 [AZ23] + CC1(C)CCC(c2ccc(Cl)cc2)=C(CN2CCN(c3ccc(C(=O)NS(=O)(=O)c4ccc(N[C@H](CCN5CCOCC5)CSc5ccccc5)c(S(=O)(=O)C(F)(F)F)c4)cc3)CC2)C1 [Navitoclax] (partner 0.5 µM)")
1.42
>>> obs_value("CC(C)Oc1cc(Nc2nc(N[C@@H](C)c3ccc(F)cn3)ncc2Cl)n[nH]1 [AZ23] + Cc1nc(NC(=O)N2CCC[C@H]2C(N)=O)sc1-c1ccnc(C(C)(C)C(F)(F)F)c1 [Alpelisib] (partner 2 µM)")
0.997

Now for the compound whose relative viability we want.
Q: Reported relative viability, compound CC(C)Oc1cc(Nc2nc(N[C@@H](C)c3ccc(F)cn3)ncc2Cl)n[nH]1 [AZ23] + Cc1cc(Nc2cc(N3CCN(C)CC3)nc(Sc3ccc(NC(=O)C4CC4)cc3)n2)n[nH]1 [Tozasertib] (partner 0.1 µM) : ____
Result: 1.1
